molecular target: T1, Hu/NoV/GII.4/MD145-12/1997/U.S. VLP (human norovirus GII.4); assay: VLP ELISA
T1 construct: mature; baculovirus VLP; VP2 may be present
ASSAY_READOUT: minimum concentration of VHH able to recognize 100 ng of VLP (ng/well)
The answer is to be given in ng/well; state only the numeric part.

Examples from the recorded data:
{"BINDER": "VHH 2.1 (VHH, llama VHH, MD2004 library; pHEN6, C-terminal His6 tag; also called clone 2.1) VHH: QVQLQESGGGLVQAGGSLRLSCAASGLTFSSYAMGWFHQAPGKEREFVAAINWSGRDTYYADSVKGRFTISRDNRKNTVYLQMNSLKPEDTAVYYCAAAEFFSSGDPLPGMDYWGKGTLVTVSS", "OBSERVED_RESULT": 8}
{"BINDER": "VHH 19 (VHH, MD2004 library, subtractive biopanning; His6 tag; also called 19.1; clone 19) VHH: QVKLQQSGGGLVQPGGSLRLSCAASGFTFRNYAMSWVRQAPGKGLEWVSAIAAGGAVTKYADSVKGRFTISRDNARDTLYLQMNSLKPEDTAVYYCAKPRDFWYSPEFDFRGQGTQVTVSS", "OBSERVED_RESULT": 4}

Could you now look at the following binder, please?
Documented minimum concentration of VHH able to recognize 100 ng of VLP of VHH 3.2 (VHH, llama VHH, MD2004 library; pHEN6, C-terminal His6 tag; also called clone 3.2) VHH: QVQLQESGGGLVQPGGSLRLSCAASESTPSINTMGWYRQAPGKERELVATITSGGMTNYADSVKGRFTISRDNGKNTVYLQMNSLEPGDTAVYYCNLKRRDLQARFGGYWGQGTQVTVSS : 1
